studySystem: MC-3 (Homo sapiens, UniProt P41968)
Construct: expressed in transfected cells; host or cells: HEK 293
Sequence (P41968 whole entry): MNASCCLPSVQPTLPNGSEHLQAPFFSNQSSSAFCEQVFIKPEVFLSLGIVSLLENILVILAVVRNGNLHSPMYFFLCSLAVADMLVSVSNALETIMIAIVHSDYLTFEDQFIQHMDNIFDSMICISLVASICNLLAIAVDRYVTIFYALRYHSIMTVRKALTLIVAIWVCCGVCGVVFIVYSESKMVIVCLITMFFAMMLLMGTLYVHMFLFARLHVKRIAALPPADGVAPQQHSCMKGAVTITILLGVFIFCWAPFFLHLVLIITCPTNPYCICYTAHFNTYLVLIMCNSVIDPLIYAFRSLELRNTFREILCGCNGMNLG
protocolNotes: cAMP assay for melanocortin receptors, HEK 293 cells expressing MC-3
Assay type: cell-based
assayConditions: HEK293, percentage of stimulation obtained by adding HP-228 at 0.8 μM, read-out: % of HP-228 (MC-3 stimulatory effect)
Listing: Emax of selected compounds
Expressed in %, but write only the number.

Consider the following illustrative entries.
CCCCOc1ccc(-c2nc3cc(C(=O)N(CCc4ccccc4)Cc4cccnc4)ccc3n2[C@@H](CCCNC(=N)N)C(N)=O)cc1    89
CCCCCc1ccc(-c2nc3cc(C(=O)N(CCc4ccccc4)Cc4ccccc4)ccc3n2[C@@H](CCCNC(=N)N)C(N)=O)cc1    229
CC(C)(C)c1ccc(-c2nc3cc(C(=O)N(CCc4ccccc4)Cc4cccnc4)ccc3n2[C@@H](CCCNC(=N)N)C(N)=O)cc1    350

Tell me Emax reported for "CC(C)(C)c1ccc(-c2nc3cc(C(=O)N4CC=C(c5ccc(Cl)cc5)CC4)ccc3n2[C@@H](CCCNC(=N)N)C(N)=O)cc1" 91

Tell me Emax reported for CC(C)c1ccc(-c2nc3cc(C(=O)NC(Cc4ccccc4)c4ccccc4)ccc3n2C(CCCNC(=N)N)C(N)=O)cc1 (stereo not drawn) 92

Tell me Emax reported for CC(C)(C)c1ccc(-c2nc3cc(C(=O)N(CCc4ccccc4)Cc4ccccc4)ccc3n2C(CCCNC(=N)N)C(N)=O)cc1 (stereo not drawn) 89

Tell me Emax reported for CC(C)c1ccc(-c2nc3cc(C(=O)N(CCc4ccccc4)Cc4ccccc4)ccc3n2C(CCCNC(=N)N)C(N)=O)cc1 (stereo not drawn) 140

Tell me Emax reported for CC(C)(C)c1ccc(-c2nc3cc(C(=O)NC(Cc4ccccc4)c4ccccc4)ccc3n2C(CCCNC(=N)N)C(N)=O)cc1 (stereo not drawn) 59

Tell me Emax reported for CCCCOc1ccc(-c2nc3cc(C(=O)NC(Cc4ccccc4)c4ccccc4)ccc3n2C(CCCNC(=N)N)C(N)=O)cc1 (stereo not drawn) 115
